- Test system: Hs-578T
- Procedure Summary: Cytotoxicity against Homo sapiens (human) Hs578T cells assessed as growth inhibition at 10 uM after 48 hr by coulter counter analysis
- Format: functional
- Experimental Setup: read-out: GI
Measure Name: inhibition of growth at 10 µM

Reference set (5 entries):
Compound	inhibition of growth at 10 µM
COc1ccc(C2C3=C(CCCC3)Nc3nc(-c4ccc(N(C)C)cc4)[nH]c(=O)c32)cc1OC (stereo not given)	< 10%
Oc1ccc(-c2nc3c4c(ncn3n2)NC2=C(CCCC2)C4c2ccc(Cl)cc2)cc1 (stereo not given)	14.1%
COc1ccc(C2C3=C(CCCC3)Nc3nc(CC#N)[nH]c(=O)c32)cc1OC (stereo not given)	< 10%
O=c1[nH]c(-c2ccccc2)nc2c1C(c1ccc(Cl)cc1)C1=C(CCCC1)N2 (stereo not given)	< 10%
COc1ccc(-c2nc3c(c(=O)[nH]2)C(c2ccc(OC)c(OC)c2)C2=C(CCCC2)N3)cc1OC (stereo not given)	< 10%

Could you tell me inhibition of growth at 10 µM for each of these compounds? They are listed below.
1. COc1ccc(C2C3=C(CCCC3)Nc3nc(-c4ccccc4)[nH]c(=O)c32)cc1OC (stereo not given)
2. COc1ccc(C2C3=C(CCCC3)Nc3nn[nH]c(=O)c32)cc1OC (stereo not given)
3. CN(C)c1ccc(-c2nc3c(c(=O)[nH]2)C(c2ccc(Cl)cc2)C2=C(CCCC2)N3)cc1 (stereo not given)
4. COc1ccc(C2C3=C(CCCC3)Nc3ncn4nc(-c5ccccc5)nc4c32)cc1OC (stereo not given)
5. COc1ccc(C2C3=C(CCCC3)Nc3ncn4nc(-c5ccc(O)cc5)nc4c32)cc1OC (stereo not given)
6. Clc1ccc(C2C3=C(CCCC3)Nc3ncn4nc(-c5ccccc5)nc4c32)cc1 (stereo not given)
7. COc1ccc(-c2nc3c(c(=O)[nH]2)C(c2ccc(Cl)cc2)C2=C(CCCC2)N3)cc1OC (stereo not given)
8. N#CCc1nc2c(c(=O)[nH]1)C(c1ccc(Cl)cc1)C1=C(CCCC1)N2 (stereo not given)

Result:
< 10%
< 10%
< 10%
< 10%
< 10%
< 10%
< 10%
< 10%

Hey, quick one: what's inhibition of growth at 10 µM for each of these?
1. O=c1[nH]nnc2c1C(c1ccc(Cl)cc1)C1=C(CCCC1)N2 (stereo not given)
2. COc1ccc(C2C3=C(CCCC3)Nc3[nH]c(=S)nc(NC(N)=S)c32)cc1OC (stereo not given)

Result:
< 10%
17.7%

---

Record form. Attribute: inhibition of growth at 10 µM. Fill in for each entry.
- System: LOX IMVI
- Procedure Summary: Cytotoxicity against Homo sapiens (human) LOXIMVI cells assessed as growth inhibition at 10 uM after 48 hr by coulter counter analysis
- Type: functional
- Experimental Setup: read-out: GI

Known results for molecules:
Molecule	Observed Result
O=c1[nH]nnc2c1C(c1ccc(Cl)cc1)C1=C(CCCC1)N2 (stereo not given)	< 10%
O=c1[nH]c(-c2ccccc2)nc2c1C(c1ccc(Cl)cc1)C1=C(CCCC1)N2 (stereo not given)	11.2%
CN(C)c1ccc(-c2nc3c(c(=O)[nH]2)C(c2ccc(Cl)cc2)C2=C(CCCC2)N3)cc1 (stereo not given)	< 10%

Below are 7 molecules. Give each one its inhibition of growth at 10 µM.
1. COc1ccc(-c2nc3c(c(=O)[nH]2)C(c2ccc(OC)c(OC)c2)C2=C(CCCC2)N3)cc1OC (stereo not given)
2. COc1ccc(C2C3=C(CCCC3)Nc3ncn4nc(-c5ccc(O)cc5)nc4c32)cc1OC (stereo not given)
3. N#CCc1nc2c(c(=O)[nH]1)C(c1ccc(Cl)cc1)C1=C(CCCC1)N2 (stereo not given)
4. COc1ccc(C2C3=C(CCCC3)Nc3nc(-c4ccc(N(C)C)cc4)[nH]c(=O)c32)cc1OC (stereo not given)
5. COc1ccc(C2C3=C(CCCC3)Nc3ncn4nc(-c5ccccc5)nc4c32)cc1OC (stereo not given)
6. COc1ccc(C2C3=C(CCCC3)Nc3[nH]c(=S)nc(NC(N)=S)c32)cc1OC (stereo not given)
7. COc1ccc(C2C3=C(CCCC3)Nc3nc(CC#N)[nH]c(=O)c32)cc1OC (stereo not given)

Result:
["21.1%", "< 10%", "< 10%", "< 10%", "< 10%", "16.1%", "< 10%"]
